Test: in vivo
Settings: rat, inhaled or intranasal
Below, each of the compounds is paired with its reported bioavailability value.
Answer with a number only, understood to be in %.

CC(=O)NC1[C@@H](N=C(N)N)C=C(C(=O)O)O[C@H]1[C@H](OC(=O)NCCCCCCCCCCCCNC(=O)O[C@H](C(O)CO)[C@@H]1OC(C(=O)O)=C[C@H](NC(=N)N)C1NC(C)=O)C(O)CO (some centres not stated); 67

Next up:
What the record says about COC(=O)C1=C[C@H](N=C(N)N)C(NC(C)=O)[C@H]([C@H](OC(=O)NCCCNC(=O)c2ccc(C(=O)NCCCNC(=O)O[C@H](C(O)CO)[C@@H]3OC(C(=O)O)=C[C@H](N=C(N)N)C3NC(C)=O)cc2)C(O)CO)O1 (some centres not stated) : bioavailability is 67
